# experiment-description: Pharmacokinetic evaluation in Mice (Table 3)
# Assay type: in vivo
# test-conditions: mouse, in vivo; Mice, Table 3, IV 1 mg/kg
reported-metric: AUC(0-t) (ng·h/mL)
Report as a plain number; the unit ng·h/mL is understood.

Task item: Identify measured AUC(0-t) associated with Nc1ncn([C@H]2CC(O)[C@@H](CO)S2)c(=O)n1 (stereo partly shown) [Aza-T-dCyd, 4′-thio-5-aza-2′-deoxycytidine]
Reply: 257

---

# Tested on: MDA MB 453
# experiment-description: drug activity profiling cytotoxicity
# Assay type: cell-based
# test-conditions: Homo sapiens; MDA MB 453 cell line, Breast; read-out: Aza-T-dCyd IC50
reported-metric: IC50 (nM)
Report as a plain number; the unit nM is understood.

Task item: Identify measured IC50 associated with Nc1ncn([C@H]2CC(O)[C@@H](CO)S2)c(=O)n1 (stereo partly shown)
Reply: 1890

---

# System: 639-V
# experiment-description: drug activity profiling cytotoxicity
# Assay type: cell-based
# test-conditions: Homo sapiens; 639-V cell line, Bladder; read-out: Aza-T-dCyd IC50
reported-metric: IC50 (nM)
Report as a plain number; the unit nM is understood.

Task item: Identify measured IC50 associated with Nc1ncn([C@H]2CC(O)[C@@H](CO)S2)c(=O)n1 (stereo partly shown) [Aza-T-dCyd, 4′-thio-5-aza-2′-deoxycytidine]
Reply: 1570

---

# Tested on: SNB-19
# experiment-description: drug activity profiling cytotoxicity
# Type: cell-based
# test-conditions: Homo sapiens; SNB-19 cell line, CNS (Glioma); read-out: Aza-T-dCyd IC50
# Method: To obtain a biomarker for Aza-T-dCyd, drug activity profiling analysis was performed to evaluate the cytotoxicity of 200 cell lines. The drug responsiveness analysis of Aza-T-dCyd through drug activity profiling and genomic analysis of 200 cell lines confirmed the potent efficacy of Aza-T-dCyd in various solid tumors (Table 2).
reported-metric: IC50 (µM)
Report as a plain number; the unit µM is understood.

Task item: Identify measured IC50 associated with Nc1ncn([C@H]2CC(O)[C@@H](CO)S2)c(=O)n1 (stereo partly shown)
Reply: 0.17

---

# experiment-description: Pharmacokinetic evaluation in Rat
# Format: in vivo
# test-conditions: in vivo; Rat, PO 0.5 mg/kg; read-out: T½ (converted)
# Experimental: Aza-T-dCyd was administered orally and intravenously at various concentrations to Mice, Rats and Dogs to determine the PK profile.
reported-metric: half-life (h)
Report as a plain number; the unit h is understood.

Task item: Identify measured half-life associated with Nc1ncn([C@H]2CC(O)[C@@H](CO)S2)c(=O)n1 (stereo partly shown) [Aza-T-dCyd, 4′-thio-5-aza-2′-deoxycytidine]
Reply: 5.24

---

# Test system: NCI-H69
# experiment-description: drug activity profiling cytotoxicity
# Assay type: cell-based
# test-conditions: Homo sapiens; NCI-H69 cell line, Lung (SCLC); read-out: Aza-T-dCyd IC50
reported-metric: IC50

Task item: Identify measured IC50 associated with Nc1ncn([C@H]2CC(O)[C@@H](CO)S2)c(=O)n1 (stereo partly shown)
Reply: > 10 µM

---

# experiment-description: Pharmacokinetic evaluation in Rat
# Format: in vivo
# test-conditions: in vivo; Rat, PO 0.5 mg/kg
# Experimental: Aza-T-dCyd was administered orally and intravenously at various concentrations to Mice, Rats and Dogs to determine the PK profile.
reported-metric: Cmax (ng/mL)
Report as a plain number; the unit ng/mL is understood.

Task item: Identify measured Cmax associated with Nc1ncn([C@H]2CC(O)[C@@H](CO)S2)c(=O)n1 (stereo partly shown)
Reply: 33.8
